Reference for the values: paper PMC10397247

- Target entity: T1, P6-AA-12HAA-Y
- T1 chain: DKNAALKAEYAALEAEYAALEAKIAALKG
- Assay details: two-hybrid library CCmax;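 further: natural log of median RNA to DNA barcode read ratio; higher means stronger binding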
- Condition label: mean of both orientations
Readout kind: interaction score
Reply with the value as a number alone.

Before answering, review these 6 worked examples.
1. DENAALEAKEAALKAKEAALKAEIAALEG [P5-AA-12HAA-E] :: -1.59
2. DENAALEAKVAALKAKVAALKAEIAALEG [P5-AA-12HAA-V] :: 1.09
3. DENAALEAKTAALKAKTAALKAEIAALEG [P5-AA-12HAA-T] :: 0.46
4. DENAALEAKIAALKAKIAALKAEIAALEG [4H1385-AA] :: 2.29
5. DENAALEAKKAALKAKKAALKAEIAALEG [P5-AA-12HAA-K] :: -1.01
6. DENAALEAKSAALKAKSAALKAEIAALEG [P5-AA-12HAA-S] :: -0.94

Please turn your attention to the following entry.
Lab book: interaction score of DENAALEAKAAALKAKAAALKAEIAALEG [P5-AA-12HAA-A] noted as -0.289
